Listing: glycan array binding signal (z-score) of selected binders
# measured-on: Gal(b1-3)GalNAc
# assay-overview: glycan array binding signal (z-score within array); higher = stronger binding
# cond: glycan notation: IUPAC condensed, linker removed
Only a selection was taken, and the strongest signals are over-represented in it overall.
endpoint-label: glycan array binding signal (z-score)

[[record]]
binder = "Pwp3 (Candida glabrata) (protein) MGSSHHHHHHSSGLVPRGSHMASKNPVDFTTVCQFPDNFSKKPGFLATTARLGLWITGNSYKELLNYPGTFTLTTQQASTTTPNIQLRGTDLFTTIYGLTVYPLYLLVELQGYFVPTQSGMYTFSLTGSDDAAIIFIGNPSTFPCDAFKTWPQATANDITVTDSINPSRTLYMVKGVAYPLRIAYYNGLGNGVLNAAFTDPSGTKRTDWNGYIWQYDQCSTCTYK"
endpoint_result = -0.038

[[record]]
binder = "Epa1 (Candida glabrata) (protein) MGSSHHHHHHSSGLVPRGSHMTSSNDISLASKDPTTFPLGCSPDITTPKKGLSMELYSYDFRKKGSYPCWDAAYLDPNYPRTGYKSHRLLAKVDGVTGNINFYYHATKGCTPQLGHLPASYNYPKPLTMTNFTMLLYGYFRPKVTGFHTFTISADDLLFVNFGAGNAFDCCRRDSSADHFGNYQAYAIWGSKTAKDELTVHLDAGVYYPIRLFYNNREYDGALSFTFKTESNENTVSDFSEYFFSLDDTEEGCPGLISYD"
endpoint_result = 3.51

[[record]]
binder = "Epa19 (Candida glabrata) (protein) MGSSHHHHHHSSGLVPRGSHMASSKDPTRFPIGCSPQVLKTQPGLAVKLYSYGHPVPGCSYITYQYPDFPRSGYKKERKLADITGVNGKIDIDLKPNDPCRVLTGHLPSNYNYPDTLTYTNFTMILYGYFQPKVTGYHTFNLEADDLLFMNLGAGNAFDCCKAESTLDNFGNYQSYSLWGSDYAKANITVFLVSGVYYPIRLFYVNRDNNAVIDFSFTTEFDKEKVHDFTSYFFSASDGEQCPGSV"
endpoint_result = -0.306

[[record]]
binder = "Als3-2 (Candida albicans) (protein) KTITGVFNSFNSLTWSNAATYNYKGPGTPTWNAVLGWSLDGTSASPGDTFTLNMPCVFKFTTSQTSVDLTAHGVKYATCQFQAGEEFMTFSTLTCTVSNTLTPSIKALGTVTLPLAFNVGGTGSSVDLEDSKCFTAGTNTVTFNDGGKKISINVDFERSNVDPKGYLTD"
endpoint_result = -0.398

[[record]]
binder = "Epa3 (Candida glabrata), Q6VBI8_CANGB (protein) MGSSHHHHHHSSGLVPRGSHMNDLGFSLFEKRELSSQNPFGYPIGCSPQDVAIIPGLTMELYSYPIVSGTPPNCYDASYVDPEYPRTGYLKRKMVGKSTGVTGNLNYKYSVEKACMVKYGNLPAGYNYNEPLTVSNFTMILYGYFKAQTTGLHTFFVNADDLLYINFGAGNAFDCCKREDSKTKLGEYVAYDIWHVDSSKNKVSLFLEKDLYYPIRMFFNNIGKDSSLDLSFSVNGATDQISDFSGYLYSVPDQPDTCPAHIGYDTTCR"
endpoint_result = 2.99

[[record]]
binder = "CV-2L (Chromobacterium violaceum), Q7NX84 (protein) MAQQGVFTLPARINFGVTVLVNSAATQHVEIFVDNEPRAAFSGVGTGDNNLGTKVINSGSGNVRVQITANGRQSDLVSSQLVLANKLNLAVVGSEDGTDMDYNDSIVILNWPLG"
endpoint_result = -0.341

